These measurements were taken from ChEMBL document CHEMBL3390840.

- Target or test system: E3 ubiquitin-protein ligase Mdm2 (Homo sapiens, UniProt Q00987)
- Sequence (Q00987 whole entry): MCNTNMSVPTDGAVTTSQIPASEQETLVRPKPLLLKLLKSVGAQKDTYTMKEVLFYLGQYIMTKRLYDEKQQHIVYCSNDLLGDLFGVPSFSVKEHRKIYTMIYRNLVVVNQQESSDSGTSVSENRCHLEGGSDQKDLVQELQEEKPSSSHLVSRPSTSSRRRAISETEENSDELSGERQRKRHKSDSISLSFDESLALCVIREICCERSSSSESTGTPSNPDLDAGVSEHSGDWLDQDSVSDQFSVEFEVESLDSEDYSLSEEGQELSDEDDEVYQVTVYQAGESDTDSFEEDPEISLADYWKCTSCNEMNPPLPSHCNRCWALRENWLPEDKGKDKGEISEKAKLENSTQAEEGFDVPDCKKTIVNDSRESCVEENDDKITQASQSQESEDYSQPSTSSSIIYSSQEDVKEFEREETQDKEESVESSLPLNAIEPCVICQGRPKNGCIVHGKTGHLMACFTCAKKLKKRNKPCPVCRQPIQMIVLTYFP
- Assay text: Inhibition of human full length GST-tagged MDM2 expressed in Escherichia coli TG1 after 15 mins by ELISA
Attribute measured: pIC50
Convention used: pIC50 is expressed as -log10 of the molar concentration.

Form: substance = "H-MPRFMDYWEGLN-OH" ; pIC50 = 6.82

====

- Target or test system: Protein Mdm4 (Homo sapiens, UniProt O15151)
- Sequence (O15151 whole entry): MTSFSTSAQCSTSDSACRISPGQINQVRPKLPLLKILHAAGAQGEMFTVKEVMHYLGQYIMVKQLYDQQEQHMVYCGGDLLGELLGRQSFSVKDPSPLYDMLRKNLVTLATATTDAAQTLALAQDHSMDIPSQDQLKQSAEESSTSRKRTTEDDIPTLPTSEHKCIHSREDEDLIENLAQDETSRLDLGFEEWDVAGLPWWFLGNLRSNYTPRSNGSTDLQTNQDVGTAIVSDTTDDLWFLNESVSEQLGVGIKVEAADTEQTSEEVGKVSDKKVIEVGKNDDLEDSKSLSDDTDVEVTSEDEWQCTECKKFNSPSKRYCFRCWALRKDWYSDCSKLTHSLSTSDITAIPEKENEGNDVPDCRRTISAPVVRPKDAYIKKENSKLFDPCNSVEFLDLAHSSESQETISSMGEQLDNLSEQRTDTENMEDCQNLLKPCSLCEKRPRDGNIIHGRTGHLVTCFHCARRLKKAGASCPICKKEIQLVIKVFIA
- Assay text: Inhibition of human full length GST-tagged MDMX expressed in Escherichia coli TG1 after 15 mins by ELISA
Attribute measured: pIC50
When answering, recall that pIC50 equals minus log10 of the concentration in mol/L, and write that number alone.

The substance identified as "H-MPRFMDYWEGLN-OH" registered its pIC50 at 5.78
